Experiment: 1st phase clinical test: pharmacokinetics of petasin in serum after single oral administration of tablets containing butterbur extract (open crossover; enzyme immunoassay)
Assay type: in vivo, human (clinically healthy men)
Settings: male, human, serum, oral, 4 tablets, after administering 4 tablets; 12 h p.a.; read-out: Petasin serum concentration Median
ENDPOINT: concentration at 12 h (ng/mL)
One number for each entry, in ng/mL.

Req: Would you mind telling me what concentration at 12 h value was observed for C=C(C)C1CC2(C)C(=CC1=O)CCC(OC(=O)/C(C)=C\C)C2C (stereo not shown) ?
Resp: 2.5

* * *

Test: 1st phase clinical test: pharmacokinetics of petasin in serum after single oral administration of tablets containing butterbur extract (open crossover; enzyme immunoassay)
Type: in vivo, human (clinically healthy men)
Details: male, human, serum, oral, 2 tablets, after administering 2 tablets; 1.17 h p.a.; read-out: Petasin serum concentration Median
ENDPOINT: concentration at 1.17 h (ng/mL)
Answers are plain numbers, in ng/mL.

Req: Would you mind telling me what concentration at 1.17 h value was observed for C=C(C)C1CC2(C)C(=CC1=O)CCC(OC(=O)/C(C)=C\C)C2C (stereo not shown) ?
Resp: 15.3

* * *

Assay: 1st phase clinical test: pharmacokinetics of petasin in serum after single oral administration of tablets containing butterbur extract (open crossover; enzyme immunoassay)
Type: in vivo, human (clinically healthy men)
Details: male, human, serum, oral, 4 tablets, after administering 4 tablets; 6 h p.a.; read-out: Petasin serum concentration Max.
ENDPOINT: concentration at 6 h (ng/mL)
One number for each entry, in ng/mL.

Req: Would you mind telling me what concentration at 6 h value was observed for C=C(C)C1CC2(C)C(=CC1=O)CCC(OC(=O)/C(C)=C\C)C2C (stereo not shown) [petasin] ?
Resp: 14.7

* * *

Assay: 1st phase clinical test: pharmacokinetics of petasin in serum after single oral administration of tablets containing butterbur extract (open crossover; enzyme immunoassay)
Assay type: in vivo, human (clinically healthy men)
Details: male, human, serum, oral, 2 tablets, after administering 2 tablets; 2.167 h p.a.; read-out: Petasin serum concentration Min.
ENDPOINT: concentration at 2.167 h

Req: Would you mind telling me what concentration at 2.167 h value was observed for C=C(C)C1CC2(C)C(=CC1=O)CCC(OC(=O)/C(C)=C\C)C2C (stereo not shown) [petasin] ?
Resp: 7.3 ng/mL

* * *

Assay: 1st phase clinical test: pharmacokinetics of petasin in serum after single oral administration of tablets containing butterbur extract (open crossover; enzyme immunoassay)
Format: in vivo, human (clinically healthy men)
Details: male, human, serum, oral, 4 tablets, after administering 4 tablets; 3 h p.a.; read-out: Petasin serum concentration Min.
ENDPOINT: concentration at 3 h (ng/mL)
Answers are plain numbers, in ng/mL.

Req: Would you mind telling me what concentration at 3 h value was observed for C=C(C)C1CC2(C)C(=CC1=O)CCC(OC(=O)/C(C)=C\C)C2C (stereo not shown) ?
Resp: 7.2

* * *

Assay: 1st phase clinical test: pharmacokinetics of petasin in serum after single oral administration of tablets containing butterbur extract (open crossover; enzyme immunoassay)
Type: in vivo, human (clinically healthy men)
Details: male, human, serum, oral, 2 tablets, after administering 2 tablets; 0.25 h p.a.; read-out: Petasin serum concentration Mean
ENDPOINT: concentration at 0.25 h (ng/mL)
Give bare numbers, in ng/mL.

Req: Would you mind telling me what concentration at 0.25 h value was observed for C=C(C)C1CC2(C)C(=CC1=O)CCC(OC(=O)/C(C)=C\C)C2C (stereo not shown) ?
Resp: 2.8

* * *

Assay: 1st phase clinical test: pharmacokinetics of petasin in serum after single oral administration of tablets containing butterbur extract (open crossover; enzyme immunoassay)
Assay type: in vivo, human (clinically healthy men)
Conditions: male, human, serum, oral, 2 tablets, after administering 2 tablets; 1 h p.a.; read-out: Petasin serum concentration Mean
ENDPOINT: concentration at 1 h (ng/mL)
Answers are plain numbers, in ng/mL.

Req: Would you mind telling me what concentration at 1 h value was observed for C=C(C)C1CC2(C)C(=CC1=O)CCC(OC(=O)/C(C)=C\C)C2C (stereo not shown) [petasin] ?
Resp: 15.6

* * *

Assay: 1st phase clinical test: pharmacokinetics of petasin in serum after single oral administration of tablets containing butterbur extract (open crossover; enzyme immunoassay)
Type: in vivo, human (clinically healthy men)
Details: male, human, serum, oral, 2 tablets, after administering 2 tablets; 0.25 h p.a.; read-out: Petasin serum concentration Max.
ENDPOINT: concentration at 0.25 h (ng/mL)
Answers are plain numbers, in ng/mL.

Req: Would you mind telling me what concentration at 0.25 h value was observed for C=C(C)C1CC2(C)C(=CC1=O)CCC(OC(=O)/C(C)=C\C)C2C (stereo not shown) ?
Resp: 5.5

* * *

Assay: 1st phase clinical test: pharmacokinetics of petasin in serum after single oral administration of tablets containing butterbur extract (open crossover; enzyme immunoassay)
Format: in vivo, human (clinically healthy men)
Conditions: male, human, serum, oral, 4 tablets, after administering 4 tablets; 2.167 h p.a.; read-out: Petasin serum concentration Max.
ENDPOINT: concentration at 2.167 h

Req: Would you mind telling me what concentration at 2.167 h value was observed for C=C(C)C1CC2(C)C(=CC1=O)CCC(OC(=O)/C(C)=C\C)C2C (stereo not shown) ?
Resp: 76.1 ng/mL

* * *

Assay: 1st phase clinical test: pharmacokinetics of petasin in serum after single oral administration of tablets containing butterbur extract (open crossover; enzyme immunoassay)
Type: in vivo, human (clinically healthy men)
Details: male, human, serum, oral, 4 tablets, after administering 4 tablets; 0.75 h p.a.; read-out: Petasin serum concentration Median
ENDPOINT: concentration at 0.75 h

Req: Would you mind telling me what concentration at 0.75 h value was observed for C=C(C)C1CC2(C)C(=CC1=O)CCC(OC(=O)/C(C)=C\C)C2C (stereo not shown) ?
Resp: 23 ng/mL

* * *

Assay: 1st phase clinical test: pharmacokinetics of petasin in serum after single oral administration of tablets containing butterbur extract (open crossover; enzyme immunoassay)
Format: in vivo, human (clinically healthy men)
Conditions: male, human, serum, oral, 2 tablets, after administering 2 tablets; 3 h p.a.; read-out: Petasin serum concentration Mean
Protocol: Petasin ovalbumin is adsorptively bound to polystyrene microtitration plates in a concentration of […] in 0.1 M carbonate buffer, pH=9.5, (100 μl/well) for 16 hours at 4° C. and thereupon sucked off. After washing it two times with 300 μl/well washing buffer (PBS, 0.1% Tween 20) it is blocked for 2 hours at room temperature with 150 μl/well blocking solution (0.6% gelatine, 0.02% […] in PBS) and subsequently washed three times with washing buffer. […]
ENDPOINT: concentration at 3 h (ng/mL)
Numbers only, in ng/mL.

Req: Would you mind telling me what concentration at 3 h value was observed for C=C(C)C1CC2(C)C(=CC1=O)CCC(OC(=O)/C(C)=C\C)C2C (stereo not shown) [petasin] ?
Resp: 8.8

* * *

Experiment: 1st phase clinical test: pharmacokinetics of petasin in serum after single oral administration of tablets containing butterbur extract (open crossover; enzyme immunoassay)
Type: in vivo, human (clinically healthy men)
Details: male, human, serum, oral, 2 tablets, after administering 2 tablets; 1 h p.a.; read-out: Petasin serum concentration Max.
ENDPOINT: concentration at 1 h (ng/mL)
Answers are plain numbers, in ng/mL.

Req: Would you mind telling me what concentration at 1 h value was observed for C=C(C)C1CC2(C)C(=CC1=O)CCC(OC(=O)/C(C)=C\C)C2C (stereo not shown) ?
Resp: 29.3

* * *

Test: 1st phase clinical test: pharmacokinetics of petasin in serum after single oral administration of tablets containing butterbur extract (open crossover; enzyme immunoassay)
Assay type: in vivo, human (clinically healthy men)
Conditions: male, human, serum, oral, 2 tablets, after administering 2 tablets; 8 h p.a.; read-out: Petasin serum concentration Mean
Method: Petasin ovalbumin is adsorptively bound to polystyrene microtitration plates in a concentration of […] in 0.1 M carbonate buffer, pH=9.5, (100 μl/well) for 16 hours at 4° C. and thereupon sucked off. After washing it two times with 300 μl/well washing buffer (PBS, 0.1% Tween 20) it is blocked for 2 hours at room temperature with 150 μl/well blocking solution (0.6% gelatine, 0.02% […] in PBS) and subsequently washed three times with washing buffer. […]
ENDPOINT: concentration at 8 h
Write down the value, and be sure its unit follows.

Req: Would you mind telling me what concentration at 8 h value was observed for C=C(C)C1CC2(C)C(=CC1=O)CCC(OC(=O)/C(C)=C\C)C2C (stereo not shown) [petasin] ?
Resp: 1.9 ng/mL

* * *

Assay: 1st phase clinical test: pharmacokinetics of petasin in serum after single oral administration of tablets containing butterbur extract (open crossover; enzyme immunoassay)
Type: in vivo, human (clinically healthy men)
Conditions: male, human, serum; 4 tablets, single oral; mean ± SD; read-out: AUC0-t(last)
ENDPOINT: AUC(0-t) (ng·h/mL)
Numbers only, in ng·h/mL.

Req: Would you mind telling me what AUC(0-t) value was observed for C=C(C)C1CC2(C)C(=CC1=O)CCC(OC(=O)/C(C)=C\C)C2C (stereo not shown) ?
Resp: 151
